Tested on: ATP;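 also: ATP exposure 15 min at 22 °C before imaging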
Assay: switch fluorescence ratio, 500 uM ATP over buffer (Cy3 cluster intensity, sum of 5 cycles each) (fold (ratio)); higher = stronger signal-on switching upon ATP binding; sequences stand for … in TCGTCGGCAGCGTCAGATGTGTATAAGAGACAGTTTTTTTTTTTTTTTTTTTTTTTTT…TC
Details: aptamer strand: ATP DNA aptamer (quencher-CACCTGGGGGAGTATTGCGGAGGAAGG + anchor), 100 nM annealed; ATP concentration: 500 uM
List of switch fluorescence ratio values.
Just the number, please, no unit attached.

The examples below pair each entry with its known result.
>>> test_value("ATTTTCGGCG")
1
>>> test_value("AGTGCGTTTG")
1
>>> test_value("GGGTACAGGT")
1.18
>>> test_value("AGGGGCAGGA")
0.941
>>> test_value("TGGGGTCTGT")
0.993

Summary for this sequence, AAAGGGGTAC : switch fluorescence ratio is 1.04

Summary for this sequence, TTGAGGCAGG : switch fluorescence ratio is 1.03

Summary for this sequence, ATATTCGTG : switch fluorescence ratio is 0.985

Summary for this sequence, GTAAAATGTT : switch fluorescence ratio is 1.03
